Assay: Hill coefficient was determined
Assay type: ADME
measured parameter: Hill coefficient
Kindly provide the number alone.

Examples from the recorded data:
What value of Hill coefficient has been recorded for this entry: `CC(=O)N[C@@H](Cc1c[nH]cn1)C(=O)N[C@H](Cc1ccccc1)C(=O)N[C@@H](CCCN=C(N)N)C(=O)N[C@@H](Cc1c[nH]c2ccccc12)C(=O)NCCCC[C@H](NC(=O)CCNC(=O)[C@H](Cc1c[nH]c2ccccc12)NC(=O)[C@H](CCCN=C(N)N)NC(=O)[C@@H](Cc1ccccc1)NC(=O)[C@H](Cc1c[nH]cn1)NC(C)=O)C(=O)NCCC(=O)N[C@@H](Cc1c[nH]cn1)C(=O)N[C@H](Cc1ccccc1)C(=O)N[C@@H](CCCN=C(N)N)C(=O)N[C@@H](Cc1c[nH]c2ccccc12)C(N)=O`
1.13

Fill in the blank: the reported Hill coefficient of `CC(=O)N[C@@H](Cc1c[nH]cn1)C(=O)N[C@H](Cc1ccccc1)C(=O)N[C@@H](CCCN=C(N)N)C(=O)N[C@@H](Cc1c[nH]c2ccccc12)C(=O)N[C@@H](Cc1c[nH]cn1)C(=O)N[C@H](Cc1ccccc1)C(=O)N[C@@H](CCCN=C(N)N)C(=O)N[C@@H](Cc1c[nH]c2ccccc12)C(N)=O` is ____.
0.9

Field request: Hill coefficient | item: `CCCC[C@H](NC(C)=O)C(=O)N[C@@H](CCC(=O)O)C(=O)N[C@@H](Cc1cnc[nH]1)C(=O)N[C@H](Cc1ccccc1)C(=O)N[C@@H](CCCNC(=N)N)C(=O)N[C@@H](Cc1c[nH]c2ccccc12)C(=O)NCCC(=O)NCC(=O)NCCC(=O)N[C@@H](CCCC)C(=O)N[C@@H](CCC(=O)O)C(=O)N[C@@H](Cc1cnc[nH]1)C(=O)N[C@H](Cc1ccccc1)C(=O)N[C@@H](CCCNC(=N)N)C(=O)N[C@@H](Cc1c[nH]c2ccccc12)C(N)=O`
0.91

Which Hill coefficient is reported for this compound? `CCCC[C@H](NC(C)=O)C(=O)N[C@@H](CCC(=O)O)C(=O)N[C@@H](Cc1cnc[nH]1)C(=O)N[C@H](Cc1ccccc1)C(=O)N[C@@H](CCCNC(=N)N)C(=O)N[C@@H](Cc1c[nH]c2ccccc12)C(=O)NCCCOCCOCCOCCCNC(=O)CCC(=O)NCCCOCCOCCOCCCNC(=O)CCC(=O)N[C@@H](CCCC)C(=O)N[C@@H](CCC(=O)O)C(=O)N[C@@H](Cc1cnc[nH]1)C(=O)N[C@H](Cc1ccccc1)C(=O)N[C@@H](CCCNC(=N)N)C(=O)N[C@@H](Cc1c[nH]c2ccccc12)C(N)=O`
0.97

Continuing:
Recorded Hill coefficient for `CC(=O)N[C@@H](Cc1c[nH]cn1)C(=O)N[C@H](Cc1ccccc1)C(=O)N[C@@H](CCCN=C(N)N)C(=O)N[C@@H](Cc1c[nH]c2ccccc12)C(=O)Nc1ccc(C(=O)N[C@@H](Cc2c[nH]cn2)C(=O)N[C@H](Cc2ccccc2)C(=O)N[C@@H](CCCN=C(N)N)C(=O)N[C@@H](Cc2c[nH]c3ccccc23)C(N)=O)cc1` , please?
1.05

====

Assay: Hill coefficient was determined
Format: ADME
Reported Hill coefficient values are given for each entry in this list.
Please reply with the value in numeric form only.

Solved entries:
Item under review: `CC(=O)N[C@@H](Cc1c[nH]cn1)C(=O)N[C@H](Cc1ccccc1)C(=O)N[C@@H](CCCN=C(N)N)C(=O)N[C@@H](Cc1c[nH]c2ccccc12)C(=O)NCCCOCCOCCOCCCNC(=O)CCC(=O)N[C@@H](Cc1c[nH]cn1)C(=O)N[C@H](Cc1ccccc1)C(=O)N[C@@H](CCCN=C(N)N)C(=O)N[C@@H](Cc1c[nH]c2ccccc12)C(N)=O` . Reported Hill coefficient?
1.83

# get_value(readout='Hill coefficient', item= `CC(=O)N[C@@H](Cc1cnc[nH]1)C(=O)N[C@H](Cc1ccccc1)C(=O)N[C@@H](CCCNC(=N)N)C(=O)N[C@@H](Cc1c[nH]c2ccccc12)C(=O)NCCC(=O)NCC(=O)NCCC(=O)N[C@@H](Cc1cnc[nH]1)C(=O)N[C@H](Cc1ccccc1)C(=O)N[C@@H](CCCNC(=N)N)C(=O)N[C@@H](Cc1c[nH]c2ccccc12)C(N)=O` )
0.99

Continuing:
I would be grateful if you could share the reported Hill coefficient for `CC(=O)N[C@@H](Cc1c[nH]cn1)C(=O)N[C@H](Cc1ccccc1)C(=O)N[C@@H](CCCN=C(N)N)C(=O)N[C@@H](Cc1c[nH]c2ccccc12)C(=O)NCCCC[C@H](NC(=O)CCNC(=O)CNC(=O)CCNC(=O)[C@H](Cc1c[nH]c2ccccc12)NC(=O)[C@H](CCCN=C(N)N)NC(=O)[C@@H](Cc1ccccc1)NC(=O)[C@H](Cc1c[nH]cn1)NC(C)=O)C(=O)NCCC(=O)NCC(=O)NCCC(=O)N[C@@H](Cc1c[nH]cn1)C(=O)N[C@H](Cc1ccccc1)C(=O)N[C@@H](CCCN=C(N)N)C(=O)N[C@@H](Cc1c[nH]c2ccccc12)C(N)=O` .
1.56

====

Target: Melanocortin receptor 4 (Homo sapiens, UniProt P32245)
Sequence (P32245 whole entry): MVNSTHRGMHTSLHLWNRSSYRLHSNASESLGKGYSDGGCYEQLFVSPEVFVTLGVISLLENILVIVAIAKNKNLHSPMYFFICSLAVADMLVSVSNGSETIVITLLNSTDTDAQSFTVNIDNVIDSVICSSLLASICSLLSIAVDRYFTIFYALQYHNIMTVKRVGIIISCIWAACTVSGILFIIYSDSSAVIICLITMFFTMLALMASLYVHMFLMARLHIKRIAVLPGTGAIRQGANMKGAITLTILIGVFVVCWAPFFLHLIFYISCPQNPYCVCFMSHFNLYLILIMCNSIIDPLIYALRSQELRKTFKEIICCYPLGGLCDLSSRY
Test: Binding affinity towards human melanocortin 4 receptor was determined using [125I]-NDP-alpha-MSH as radioligand transfected in HEK293 human embryonic kidney cells
Format: cell-based
Conditions: hek293; read-out: EC50
measured parameter: binding affinity (radioligand displacement) (nM)
Give just the numeric value; nM need not be written.

Tell me the measured binding affinity (radioligand displacement) of `CC(=O)N[C@@H](Cc1c[nH]cn1)C(=O)N[C@H](Cc1ccccc1)C(=O)N[C@@H](CCCN=C(N)N)C(=O)N[C@@H](Cc1c[nH]c2ccccc12)C(=O)NCCCOCCOCCOCCCNC(=O)CCC(=O)N[C@@H](Cc1c[nH]cn1)C(=O)N[C@H](Cc1ccccc1)C(=O)N[C@@H](CCCN=C(N)N)C(=O)N[C@@H](Cc1c[nH]c2ccccc12)C(N)=O` , please.
662

Which binding affinity (radioligand displacement) value belongs to `CCCC[C@H](NC(C)=O)C(=O)N[C@@H](CCC(=O)O)C(=O)N[C@@H](Cc1c[nH]cn1)C(=O)N[C@H](Cc1ccccc1)C(=O)N[C@@H](CCCN=C(N)N)C(=O)N[C@@H](Cc1c[nH]c2ccccc12)C(=O)NCCCOCCOCCOCCCNC(=O)CCC(=O)N[C@@H](CCCC)C(=O)N[C@@H](CCC(=O)O)C(=O)N[C@@H](Cc1c[nH]cn1)C(=O)N[C@H](Cc1ccccc1)C(=O)N[C@@H](CCCN=C(N)N)C(=O)N[C@@H](Cc1c[nH]c2ccccc12)C(N)=O` ?
33

Next item in the queue.
Requested field: binding affinity (radioligand displacement). Item: `CCCC[C@H](NC(C)=O)C(=O)N[C@@H](CCC(=O)O)C(=O)N[C@@H](Cc1cnc[nH]1)C(=O)N[C@H](Cc1ccccc1)C(=O)N[C@@H](CCCNC(=N)N)C(=O)N[C@@H](Cc1c[nH]c2ccccc12)C(=O)NCCCOCCOCCOCCCNC(=O)CCC(=O)NCCCOCCOCCOCCCNC(=O)CCC(=O)N[C@@H](CCCC)C(=O)N[C@@H](CCC(=O)O)C(=O)N[C@@H](Cc1cnc[nH]1)C(=O)N[C@H](Cc1ccccc1)C(=O)N[C@@H](CCCNC(=N)N)C(=O)N[C@@H](Cc1c[nH]c2ccccc12)C(N)=O`
122

====

Assay: Hill coefficient was determined
Type: ADME
measured parameter: Hill coefficient
Reply with just the number.

Example entries begin here.
What measured Hill coefficient goes with `CC(=O)N[C@@H](Cc1c[nH]cn1)C(=O)N[C@H](Cc1ccccc1)C(=O)N[C@@H](CCCN=C(N)N)C(=O)N[C@@H](Cc1c[nH]c2ccccc12)C(=O)Nc1ccc(C(=O)Nc2ccc(C(=O)N[C@@H](Cc3c[nH]cn3)C(=O)N[C@H](Cc3ccccc3)C(=O)N[C@@H](CCCN=C(N)N)C(=O)N[C@@H](Cc3c[nH]c4ccccc34)C(N)=O)cc2)cc1` ?
1.12

Which Hill coefficient is reported for this molecule? `CC(=O)N[C@@H](Cc1c[nH]cn1)C(=O)N[C@H](Cc1ccccc1)C(=O)N[C@@H](CCCN=C(N)N)C(=O)N[C@@H](Cc1c[nH]c2ccccc12)C(=O)NCCC(=O)NCC(=O)NCCC(=O)NCC(=O)NCCC(=O)NCC(=O)NCCC(=O)N[C@@H](Cc1c[nH]cn1)C(=O)N[C@H](Cc1ccccc1)C(=O)N[C@@H](CCCN=C(N)N)C(=O)N[C@@H](Cc1c[nH]c2ccccc12)C(N)=O`
0.88

Continue with the molecule presented below.
Sample `CC(=O)N[C@@H](Cc1c[nH]cn1)C(=O)N[C@H](Cc1ccccc1)C(=O)N[C@@H](CCCN=C(N)N)C(=O)N[C@@H](Cc1c[nH]c2ccccc12)C(=O)NCCOCCOCCNC(=O)CCC(=O)N[C@@H](Cc1c[nH]cn1)C(=O)N[C@H](Cc1ccccc1)C(=O)N[C@@H](CCCN=C(N)N)C(=O)N[C@@H](Cc1c[nH]c2ccccc12)C(N)=O` — what was its Hill coefficient?
1.1

Where these numbers come from: ChEMBL document CHEMBL1146694
